# tgt: Adenosine receptor A2a (Rattus norvegicus)
# Sequence (P30543 whole entry): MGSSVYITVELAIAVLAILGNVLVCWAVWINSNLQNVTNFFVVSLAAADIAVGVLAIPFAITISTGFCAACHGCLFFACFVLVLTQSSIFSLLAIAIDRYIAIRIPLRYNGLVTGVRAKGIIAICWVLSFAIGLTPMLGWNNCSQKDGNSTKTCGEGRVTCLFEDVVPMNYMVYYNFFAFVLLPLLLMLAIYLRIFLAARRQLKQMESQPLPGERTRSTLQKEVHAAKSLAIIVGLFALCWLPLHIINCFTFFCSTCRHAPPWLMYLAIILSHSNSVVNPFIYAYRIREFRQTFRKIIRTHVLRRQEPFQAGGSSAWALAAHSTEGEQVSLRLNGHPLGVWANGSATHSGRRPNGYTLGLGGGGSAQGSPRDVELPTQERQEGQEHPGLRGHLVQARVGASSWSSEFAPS
pKi: −log10 of the molar value.
test-readout: pKi

Previously resolved entries follow.
smiles-structure	pKi
C[C@@H](c1ccccc1)n1c2ccccc2c2c(N)nc(-c3ccccc3)nc21	< 4.52
Cc1c(C)n([C@@H](C)c2ccccc2)c2nc(-c3ccc(Cl)cc3)[nH]c(=O)c12	< 4.52

Write down measured pKi (Adenosine receptor A2a (Rattus norvegicus)) for this compound. `Cc1c(C)n([C@H](C)c2ccccc2)c2ncnc(N[C@H](C)c3ccccc3)c12`
< 4.52

Origin of the recorded values: ChEMBL document CHEMBL1129727
